All values here come from patent US7419790B2.

TARGET ENTITY: AGT1-4F2hc fusion protein (Mus musculus, UniProt P10852+Q91WN3)
Sequence (Q91WN3+P10852 fused): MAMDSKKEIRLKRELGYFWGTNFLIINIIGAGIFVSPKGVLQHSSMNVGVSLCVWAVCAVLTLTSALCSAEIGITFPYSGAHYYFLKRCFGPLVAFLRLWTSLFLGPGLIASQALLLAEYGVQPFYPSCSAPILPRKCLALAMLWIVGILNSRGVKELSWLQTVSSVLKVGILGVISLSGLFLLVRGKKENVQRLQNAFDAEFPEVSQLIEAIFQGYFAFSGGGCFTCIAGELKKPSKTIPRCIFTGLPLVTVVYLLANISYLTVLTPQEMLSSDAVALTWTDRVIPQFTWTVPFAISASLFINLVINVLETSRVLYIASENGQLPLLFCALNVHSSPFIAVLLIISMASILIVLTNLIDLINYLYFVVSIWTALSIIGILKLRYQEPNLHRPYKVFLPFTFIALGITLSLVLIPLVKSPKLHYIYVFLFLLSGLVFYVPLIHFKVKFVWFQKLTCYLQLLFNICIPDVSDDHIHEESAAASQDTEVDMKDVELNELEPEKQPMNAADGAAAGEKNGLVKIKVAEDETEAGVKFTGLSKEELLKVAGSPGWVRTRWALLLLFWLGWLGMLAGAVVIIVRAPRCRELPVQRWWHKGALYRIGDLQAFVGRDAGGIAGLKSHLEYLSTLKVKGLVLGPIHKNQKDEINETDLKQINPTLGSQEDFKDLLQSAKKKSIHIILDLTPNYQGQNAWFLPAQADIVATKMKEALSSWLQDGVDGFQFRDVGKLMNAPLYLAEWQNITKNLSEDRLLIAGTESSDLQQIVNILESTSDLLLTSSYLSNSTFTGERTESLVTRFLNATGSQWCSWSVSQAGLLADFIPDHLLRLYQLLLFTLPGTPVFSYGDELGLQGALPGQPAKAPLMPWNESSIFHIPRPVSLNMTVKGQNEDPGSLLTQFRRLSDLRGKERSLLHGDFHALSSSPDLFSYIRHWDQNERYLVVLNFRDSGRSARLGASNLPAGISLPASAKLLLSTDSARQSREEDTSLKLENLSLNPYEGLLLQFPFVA
ASSAY TEXT: Inhibition of 14C-aspartic acid uptake by added amino acids and analogues, oocytes expressing AGT1-4F2hc
Assay type: cell-based
COND: 2 mM non-labeled compound, 14C-aspartic acid 20 μM, sodium-free uptake solution
Experimental: However, a sodium-free uptake solution was used and the uptake ^14C-aspartic acid (20 μM) was measured in the presence and absence of 2 mM of various compounds (non-labeled).
PROPERTY MEASURED: effect on uptake of 14C-aspartic acid mediated by AGT1-4F2hc (cis-inhibition)

[
  {
    "COMPOUND": "N[C@@H](CCCC(=O)O)C(=O)O [L-α-aminoadipate]",
    "RESULT": "no inhibition effect"
  },
  {
    "COMPOUND": "NC1(C(=O)O)CC2CCC1C2 (stereo not drawn)",
    "RESULT": "did no affect"
  },
  {
    "COMPOUND": "O=C(O)[C@@H]1CN[C@@H](C(=O)O)C1 (relative stereo) [L-trans-pyrrolidine-2,4-dicarboxylate]",
    "RESULT": "no inhibition effect"
  },
  {
    "COMPOUND": "N[C@@H](CS)C(=O)O.O=S(=O)(O)O [L-cysteine sulfate]",
    "RESULT": "strongly inhibited"
  },
  {
    "COMPOUND": "CC(C)[C@H]1CN[C@H](C(=O)O)[C@H]1CC(=O)O [dihydrokainate]",
    "RESULT": "no inhibition effect"
  }
]

Enquiry: Entry N[C@H](CC(=O)O)C(=O)O needs its effect on uptake of 14C-aspartic acid mediated by AGT1-4F2hc (cis-inhibition) filled in; supply it.
Return: did no affect

Enquiry: Entry N[C@@H](CSSC[C@H](N)C(=O)O)C(=O)O needs its effect on uptake of 14C-aspartic acid mediated by AGT1-4F2hc (cis-inhibition) filled in; supply it.
Return: did no affect

Enquiry: Entry N[C@@H](COS(=O)(=O)O)C(=O)O [L-serine-O-sulfate] needs its effect on uptake of 14C-aspartic acid mediated by AGT1-4F2hc (cis-inhibition) filled in; supply it.
Return: strongly inhibited

Enquiry: Entry N[C@H](CCC(=O)O)C(=O)O needs its effect on uptake of 14C-aspartic acid mediated by AGT1-4F2hc (cis-inhibition) filled in; supply it.
Return: did no affect

Enquiry: Entry N[C@@H](CCS(=O)(=O)O)C(=O)O [L-homocysteate] needs its effect on uptake of 14C-aspartic acid mediated by AGT1-4F2hc (cis-inhibition) filled in; supply it.
Return: no inhibition effect

Enquiry: Entry NC(C(=O)O)C(O)C(=O)O (stereo not drawn) [threo-β-hydroxyaspartate] needs its effect on uptake of 14C-aspartic acid mediated by AGT1-4F2hc (cis-inhibition) filled in; supply it.
Return: strongly inhibited

Enquiry: Entry N[C@@H](CS(=O)(=O)O)C(=O)O [L-cysteate] needs its effect on uptake of 14C-aspartic acid mediated by AGT1-4F2hc (cis-inhibition) filled in; supply it.
Return: strongly inhibited
